- Tested on: L. major promastigotes
- test.method.notes: Antileishmanial activity, MTT-based assay
- Assay type: cell-based, Leishmania major
- settings: promastigotes, 72 h incubation, MTT; error reported as σ
pIC50: −log10 of the molar value.

>  <input.smiles>
CC1=CC(C)=[N+]2C1=C(c1ccc(N(C)C)c3ccccc13)c1c(C)c(C=O)c(C)n1[B-]2(F)F

>  <relational.operator>
=

>  <pIC50>
4.80

$$$$
>  <input.smiles>
CC1=C(C=O)C(C)=[N+]2C1=C(c1cccs1)c1c(C)cc(C)n1[B-]2(F)F

>  <relational.operator>
=

>  <pIC50>
4.71

$$$$
>  <input.smiles>
CC1=CC(C)=[N+]2C1=C(c1nccs1)c1c(C)cc(C)n1[B-]2(F)F

>  <relational.operator>
<

>  <pIC50>
4.00

$$$$
>  <input.smiles>
CC1=C(C=O)C(C)=[N+]2C1=C(c1ccc(N(c3ccccc3)c3ccccc3)cc1)c1c(C)cc(C)n1[B-]2(F)F

>  <relational.operator>
<

>  <pIC50>
4.00

$$$$
>  <input.smiles>
CCn1c2ccccc2c2cc(C3=C4C(C)=CC(C)=[N+]4[B-](F)(F)n4c(C)cc(C)c43)ccc21

>  <relational.operator>
<

>  <pIC50>
4.00

$$$$
>  <input.smiles>
CC1=CC(C)=[N+]2C1=C(c1c3ccccc3cc3ccccc13)c1c(C)cc(C)n1[B-]2(F)F

>  <relational.operator>
=

>  <pIC50>
5.27

$$$$
>  <input.smiles>
CC1=C(C=O)C(C)=[N+]2C1=C(c1c3ccccc3cc3ccccc13)c1c(C)cc(C)n1[B-]2(F)F

>  <relational.operator>
=

>  <pIC50>
4.99

$$$$
